Test: amyloid nucleation score (Sup35N fusion, yeast selection) (log enrichment); library NNK3; higher = more nucleation; inactive = no reads after selection;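 further: zero at mode of non-aggregating sequences after 7 days selection at 30°C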
EXPERIMENTAL_READOUT: amyloid nucleation score

Sample answers from the record:
- SUBSTANCE: "QVPLCHMAGKQNLVSRAQTC"
  RESULT: "inactive"
- SUBSTANCE: "QSSLVDGWKNLTKVRCGDYS"
  RESULT: "inactive"
- SUBSTANCE: "SKLKATRTRL"
  RESULT: "inactive"
- SUBSTANCE: "QQHRSALRVQVHRVCGNSVI"
  RESULT: "inactive"
- SUBSTANCE: "NLCFCALCGKYIRVNVVAM"
  RESULT: 1.52

Fill in: amyloid nucleation score of LILCRCCSGVYRTRVMKLLL is ___ inactive

Sample ERQVYMVLGSICRKPTMERS — what was its amyloid nucleation score? -1.05
